# Assay Target: T1, cynomolgus IgE (recombinant chimaeric D12 variable region and cynomolgus IgE constant region) (cynomolgus monkey (constant region); …)
# T1 construct: The entries may hold a leader peptide; also called cyno IgE; cynomolgus monkey IgE
# T1 sequence (heavy, as listed by the source limits assumed, chain 1 of 2): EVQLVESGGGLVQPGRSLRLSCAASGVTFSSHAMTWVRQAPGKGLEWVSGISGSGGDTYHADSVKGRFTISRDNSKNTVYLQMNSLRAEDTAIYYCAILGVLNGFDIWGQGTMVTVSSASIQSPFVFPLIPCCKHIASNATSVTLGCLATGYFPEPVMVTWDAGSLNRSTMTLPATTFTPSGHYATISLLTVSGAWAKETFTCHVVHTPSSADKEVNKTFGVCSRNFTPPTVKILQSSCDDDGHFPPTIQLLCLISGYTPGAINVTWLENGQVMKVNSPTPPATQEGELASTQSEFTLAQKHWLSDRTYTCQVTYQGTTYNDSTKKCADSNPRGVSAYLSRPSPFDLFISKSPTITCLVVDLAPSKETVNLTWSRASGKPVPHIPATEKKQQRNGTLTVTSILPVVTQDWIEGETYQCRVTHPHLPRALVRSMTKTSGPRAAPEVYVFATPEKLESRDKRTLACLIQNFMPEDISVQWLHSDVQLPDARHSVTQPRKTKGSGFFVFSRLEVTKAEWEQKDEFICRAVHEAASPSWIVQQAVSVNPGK
# T1 sequence (light, as listed by the source limits assumed, chain 2 of 2): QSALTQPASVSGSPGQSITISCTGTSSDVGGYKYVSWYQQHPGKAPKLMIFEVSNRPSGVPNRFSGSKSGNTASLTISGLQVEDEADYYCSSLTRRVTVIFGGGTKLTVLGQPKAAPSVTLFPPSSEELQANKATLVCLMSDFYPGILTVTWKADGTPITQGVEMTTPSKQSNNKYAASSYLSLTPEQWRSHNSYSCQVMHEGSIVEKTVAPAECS
# Procedure Details: HTRF competition; scFv titrated vs Eu-cryptate cynomolgus IgE binding to human FcεRI-Fc; geomean
The following binders are listed with their measured IC50 values.
# unit: nM | format: bare number

Binder	IC50 (nM)
Antibody 18 scFv (scFv, V domains shown, Purified scFv) VH: QVQLVQSGAEVKKPGATVKLSCKVYGYIFTDYNIYWVRQAPGKGLEWMGLIDPDNGETFYAEKFQGRATMTADTSSDRAYMELTSLTFEDTATYYCATVLLRSAKGGYDYWGRGTLVTVSS VL: QSVLTQPPSVSGAPGQRVTISCTGSSSNIGAGYDVHWYQQLPGTAPKLLIYDNFNRPSGVPDRFSGSKSGTSASLAIIGLQTEDEADYYCQSYDSHLQLSPFGTGTKLTVL	110

Short answer for Antibody 7 scFv (scFv, V domains shown, Purified scFv) VH: QVQLVQSGAEVKKPGATVKLSCKVYGYIFTDYNIYWVRQAPGKGLEWMGLIDPDNGETFYAEKFQGRATMTADTSSDRAYMELTSLTFEDTATYYCATVTLKSAKGGYDYWGRGTLVTVSS VL: QSVLTQPPSVSGAPGQRVTISCTGSSSNIGAGYDVHWYQQLPGTAPKLLIYDNFNRPSGVPDRFSGSKSGTSASLAIIGLQTEDEADYYCQSYDSDRRNSPFGTGTKLTVL : IC50 was 186

Data credit: patent US20140127212A1
